biological target: T1, recombinant human TfR (2474-TR, R&D Systems), biotinylated (human, UniProt P02786 89-760, biotinylated with EZ-Link NHS-PEG4-Biotinylation Kit); assay: SPR (Biacore), biotinylated human TfR captured on an SA chip, VHH injected, 1:1 dissociation fit, pH 5.5
T1 construct: Bought protein; also called immobilized recombinant human TfR; biotinylated human TfR
T1 sequence (P02786 89-760 limits assumed): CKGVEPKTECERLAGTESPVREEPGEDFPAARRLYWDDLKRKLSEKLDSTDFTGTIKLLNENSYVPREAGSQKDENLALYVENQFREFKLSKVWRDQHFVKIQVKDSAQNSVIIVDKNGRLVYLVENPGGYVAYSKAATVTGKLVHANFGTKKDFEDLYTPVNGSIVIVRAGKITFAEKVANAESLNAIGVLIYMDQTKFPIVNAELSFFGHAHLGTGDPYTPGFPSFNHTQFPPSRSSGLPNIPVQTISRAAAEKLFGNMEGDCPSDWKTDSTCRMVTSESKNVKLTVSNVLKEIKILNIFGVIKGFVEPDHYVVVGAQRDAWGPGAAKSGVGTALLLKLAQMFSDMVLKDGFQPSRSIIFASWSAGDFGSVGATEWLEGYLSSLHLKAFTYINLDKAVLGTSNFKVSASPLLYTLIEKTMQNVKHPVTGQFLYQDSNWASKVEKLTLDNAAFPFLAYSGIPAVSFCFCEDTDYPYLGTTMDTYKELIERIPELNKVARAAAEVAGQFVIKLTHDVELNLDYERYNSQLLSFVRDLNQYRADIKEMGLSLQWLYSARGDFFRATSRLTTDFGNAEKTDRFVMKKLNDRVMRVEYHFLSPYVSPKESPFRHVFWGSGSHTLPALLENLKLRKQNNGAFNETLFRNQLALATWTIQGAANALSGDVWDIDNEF
assayMetric: koff (s⁻¹)

a: BBB00741 (VHH, also called histidine mutant of BBB00533) VHH: EVQLVESGGGLVQAGGSLRLSCAASGSIFHINAMGWYRQAPGKQRELVAVITSGGSTIYADSVKGRFTISRDNAENTVYLQMNSLRPEDTAVYYCNAHVGLKVPTIQELSLGFGSWGQGTLVTVSS
b: BBB00763 (VHH, also called histidine mutant of BBB00533) VHH: EVQLVESGGGLVQAGGSLRLSCAASGSIFSINAMGWYRQAPGKQRELVAVITSGGSTIYADSVKGRFTISRDNAENTVYLQMNSLRPEDTAVYYCNAHVGLKVPTHQELSLGFGSWGQGTLVTVSS
Form field 'greater koff' accepts a or b ; which applies? Bench note: the answer is the label of the chosen record.
b
(b: 0.022 s⁻¹, a: 0.0151 s⁻¹)

1: BBB00767 (VHH, Histidine mutant) VHH: EVQLVESGGGLVQAGGSLRLSCAASGSIFSINAMGWYRQAPGKQRELVAVITSGGSTIYADSVKGRFTISRDNAENTVYLQMNSLRPEDTAVYYCNAHVGLKVPTIQELHLGFGSWGQGTLVTVSS
2: BBB00736 (VHH, also called variant of BBB00515) VHH: EVQLVESGGGLVQAGGSLRLSCAASGSIFSINAMGWYRQAPGKQRELVAVITSGGSTIYADSVKGRFTISRDNAENTVYLQMNSLRPEDTAVYYCNAHVGLKVPTIQELSLGFGSWGQGTLVTVSS
Parameter metric = koff. Return the lower-valued option from 1 and 2 . Select an item and report its label.
1

// data source = patent US20260274981A1
